studySystem: ACC1 from rat liver (Rattus norvegicus)
Construct: The livers (for ACC1 preparation) or skeletal muscle tissue (for ACC2 preparation) are removed; from tissue; host or cells: liver of male CD rats (fasted, then fed a high sucrose diet)
assayInfo: Direct inhibition of ACC1 activity (14C-bicarbonate incorporation)
Assay type: biochemical
conditions: ACC1 from rat liver
pIC50: −log10 of the molar value. Counter-ions that a name gives are not always drawn.
# pIC50 per entry
valueKind: pIC50

In [3]: df
Out[3]:
                                    molecule  boundtype  obsvalue
 0  Cc1cc2c(cc1C)C(=O)CC1(CCN(C(=O)c3ccc4c(c3)nnn4C)CC1)O2          >      5.52
 1  CCOc1ccc2c(c1)C(=O)CC1(CCN(C(=O)c3cc(Cl)c4[nH]ncc4c3)CC1)O2          =      7.67
 2  COc1ccc2c(c1)OC1(CCN(C(=O)c3cccc4cn[nH]c34)CC1)CC2=O          =      5.60
 3  Cc1ccc2c(c1)C(=O)CC1(CCN(C(=O)c3cc(C)c4[nH]ncc4c3)CC1)O2          =      7.27
 4  Cc1cc2c(cc1C)C(=O)CC1(CCN(C(=O)c3cc(Cl)c4[nH]ncc4c3)CC1)O2          =      7.62
 5  COc1ccc2c(c1)C(=O)CC1(CCN(C(=O)c3ccc4c(cnn4C)c3)CC1)O2 [Ex. D2]          =      6.67
 6  Cc1cc2c(cc1Cl)OC1(CCN(C(=O)c3cccc4cn[nH]c34)CC1)CC2=O          =      6.65
 7  Cc1cc2c(cc1C)C(=O)CC1(CCN(C(=O)c3cccc4c3ccn4C)CC1)O2          =      6.38
 8  Cc1cc2c(cc1Cl)C(=O)CC1(CCN(C(=O)c3ccc4c(cnn4C)c3)CC1)O2          =      6.60
 9  O=C1CC2(CCN(C(=O)c3cccc4cn[nH]c34)CC2)Oc2ccccc21          <      5.52
10  O=C1CC2(CCN(C(=O)c3ccc4[nH]nnc4c3)CC2)Oc2ccc(Cl)cc21          >      6.00
11  Cc1cc2c(cc1C)C(=O)CC1(CCN(C(=O)c3cccc4cn[nH]c34)CC1)O2          =      6.79
12  CCc1cc(C(=O)N2CCC3(CC2)CC(=O)c2cc(C(=O)OC)ccc2O3)cc2cn[nH]c12          =      7.31
13  Cc1cc2c(cc1Br)C(=O)CC1(CCN(C(=O)c3cc(C)c4[nH]ncc4c3)CC1)O2          =      7.49
14  Cc1cc(C(=O)N2CCC3(CC2)CC(=O)c2cc(C(F)(F)F)ccc2O3)cc2cn[nH]c12          =      7.02
15  COc1cccc2c1C(=O)CC1(CCN(C(=O)c3ccc4nc(-c5ccccc5)[nH]c4c3)CC1)O2          =      7.81
16  Cc1cc2c(cc1C)C(=O)CC1(CCN(C(=O)c3cccc4cc[nH]c34)CC1)O2 [Ex. L1, trifluoroacetic acid salt]          =      6.72
17  COc1cc(C)cc2c1C(=O)CC1(CCN(C(=O)c3cccc4cn[nH]c34)CC1)O2          =      6.55
18  Cc1cc(C(=O)N2CCC3(CC2)CC(=O)c2c(Cl)cc(Cl)cc2O3)cc2cn[nH]c12          =      6.68
19  Cc1cc(C(=O)N2CCC3(CC2)CC(=O)c2cc(C(C)C)ccc2O3)cc2cn[nH]c12          =      6.96
20  Cc1cc2ccc(C(=O)N3CCC4(CC3)CC(=O)c3cc(C)c(C)cc3O4)cc2[nH]1 [Ex. L3, trifluoroacetic acid salt]          =      6.43
21  COc1ccc2c(c1)C(=O)CC1(CCN(C(=O)c3cc(Cl)c4[nH]ncc4c3)CC1)O2          =      7.09

###

Each entry below carries its reported IC50.
studySystem: ACC1 from rat liver (Rattus norvegicus, UniProt P11497)
Construct: The livers (for ACC1 preparation) or skeletal muscle tissue (for ACC2 preparation) are removed; from tissue; host or cells: liver of male CD rats (fasted, then fed a high sucrose diet)
assayInfo: Direct inhibition of ACC1 activity (14C-bicarbonate incorporation)
Format: biochemical
conditions: ACC1 from rat liver
Experimental: [1] Preparation of ACC1 and ACC2. Male CD rats weighing 150-200 g are fasted for 2 days and then fed a high sucrose diet (AIN-76A rodent diet; Cat # D10001, Research Diets Inc., New Brunswick, N.J.), for 3 days at which time they are sacrificed by CO2 asphyxiation. […] [2] […] The dried vials are then cooled, 0.5 ml of water and 5.5 ml of Ready Safe liquid scintillation fluid (Beckman Coulter Inc., Fullerton, Calif.) are added, and the radioactivity is determined using a liquid scintillation counter. […]
valueKind: IC50

>>> df
                                      smiles    obsvalue
 0  COc1cc(Cl)c2c(c1)OC1(CCN(C(=O)c3cc(C)c4[nH]ncc4c3)CC1)CC2=O   0.0319 µM
 1  O=C1CC2(CCN(C(=O)c3cccc4cn[nH]c34)CC2)Oc2cc(-c3ccccc3)ccc21     2.21 µM
 2  COc1cccc2c1C(=O)CC1(CCN(C(=O)c3ccc4[nH]c(C)c(C)c4c3)CC1)O2    0.113 µM
 3  Cc1cc2c(cc1Br)C(=O)CC1(CCN(C(=O)c3cccc4cn[nH]c34)CC1)O2    0.264 µM
 4  COc1c(Cl)ccc2c1C(=O)CC1(CCN(C(=O)c3cccc4cn[nH]c34)CC1)O2     1.83 µM
 5  Cc1cc2c(cc1C)C(=O)CC1(CCN(C(=O)c3ccc4c(c3)CCC(=O)N4)CC1)O2      < 3 µM
 6  Cc1cc2c(cc1Cl)C(=O)CC1(CCN(C(=O)c3cc(Cl)c4[nH]ncc4c3)CC1)O2   0.0568 µM
 7  Cc1cc2c(cc1Cl)C(=O)CC1(CCN(C(=O)c3cc(Br)cc4cn[nH]c34)CC1)O2    0.345 µM
 8  COc1ccc2c(c1)C(=O)CC1(CCN(C(=O)c3ccc4c(C)n[nH]c4c3)CC1)O2   0.0492 µM
 9  O=C1CC2(CCN(C(=O)c3ccc4[nH]c5c(c4c3)CCNC5=O)CC2)Oc2ccc(Cl)cc21    0.106 µM
10  CC(C)n1nnc2cc(C(=O)N3CCC4(CC3)CC(=O)c3cc(Cl)ccc3O4)ccc21      > 1 µM
11  Cc1cc2c(cc1C)C(=O)CC1(CCN(C(=O)c3cc(C)c4[nH]nc(C)c4c3)CC1)O2   0.0098 µM
12  Cc1cc(C(=O)N2CCC3(CC2)CC(=O)c2ccc(C#N)cc2O3)cc2cn[nH]c12    0.277 µM
13  COc1ccc2c(c1F)C(=O)CC1(CCN(C(=O)c3cccc4cn[nH]c34)CC1)O2    0.381 µM
14  Cc1cc2c(cc1C)C(=O)CC1(CCN(C(=O)c3ccc4[nH]c5c(c4c3)CCNC5=O)CC1)O2  0.00998 µM
15  Cc1cc2c(cc1C)C(=O)CC1(CCN(C(=O)c3ccc4cnn(C)c4c3)CC1)O2    0.167 µM
16  O=C1CC2(CCN(C(=O)c3ccc4nc[nH]c4c3)CC2)Oc2ccc(Cl)cc21      > 1 µM

###

Quick reference: pIC50 of the listed items.
studySystem: ACC1 from rat liver (Rattus norvegicus)
Construct: The livers (for ACC1 preparation) or skeletal muscle tissue (for ACC2 preparation) are removed; from tissue; host or cells: liver of male CD rats (fasted, then fed a high sucrose diet)
assayInfo: Direct inhibition of ACC1 activity (14C-bicarbonate incorporation)
Assay type: biochemical
conditions: ACC1 from rat liver
pIC50: −log10 of the molar value.
valueKind: pIC50

>>> print(df.to_string())
                                   compound  boundtype  obsvalue
0  Cc1cc2c(c(C)c1Cl)C(=O)CC1(CCN(C(=O)c3cccc4cn[nH]c34)CC1)O2 [Ex. H8]          =      6.23
1  Cc1cc2c(cc1C)C(=O)CC1(CCN(C(=O)c3ccc4nccnc4c3)CC1)O2 [Ex. L45]          >      5.52
2  Cc1cc(C(=O)N2CCC3(CC2)CC(=O)c2cc(S(C)(=O)=O)ccc2O3)cc2cn[nH]c12 [Ex. A35]          =      5.95
3  CCc1nc2cc(C(=O)N3CCC4(CC3)CC(=O)c3c(OC)cccc3O4)ccc2n1-c1cccc(OC)c1 [Ex. L31]          =      5.94

From: patent US20090270435A1
